Property: Dmax; scope: individual compounds
target of assay: BRAF G466V (Homo sapiens, UniProt P15056, G466V)
Construct: Horizon Discovery (HCT-116 BRAF−/− cells); host or cells: HCT-116 BRAF−/− cells, clone 8, lentiviral transduction
Sequence (P15056 whole entry G466V): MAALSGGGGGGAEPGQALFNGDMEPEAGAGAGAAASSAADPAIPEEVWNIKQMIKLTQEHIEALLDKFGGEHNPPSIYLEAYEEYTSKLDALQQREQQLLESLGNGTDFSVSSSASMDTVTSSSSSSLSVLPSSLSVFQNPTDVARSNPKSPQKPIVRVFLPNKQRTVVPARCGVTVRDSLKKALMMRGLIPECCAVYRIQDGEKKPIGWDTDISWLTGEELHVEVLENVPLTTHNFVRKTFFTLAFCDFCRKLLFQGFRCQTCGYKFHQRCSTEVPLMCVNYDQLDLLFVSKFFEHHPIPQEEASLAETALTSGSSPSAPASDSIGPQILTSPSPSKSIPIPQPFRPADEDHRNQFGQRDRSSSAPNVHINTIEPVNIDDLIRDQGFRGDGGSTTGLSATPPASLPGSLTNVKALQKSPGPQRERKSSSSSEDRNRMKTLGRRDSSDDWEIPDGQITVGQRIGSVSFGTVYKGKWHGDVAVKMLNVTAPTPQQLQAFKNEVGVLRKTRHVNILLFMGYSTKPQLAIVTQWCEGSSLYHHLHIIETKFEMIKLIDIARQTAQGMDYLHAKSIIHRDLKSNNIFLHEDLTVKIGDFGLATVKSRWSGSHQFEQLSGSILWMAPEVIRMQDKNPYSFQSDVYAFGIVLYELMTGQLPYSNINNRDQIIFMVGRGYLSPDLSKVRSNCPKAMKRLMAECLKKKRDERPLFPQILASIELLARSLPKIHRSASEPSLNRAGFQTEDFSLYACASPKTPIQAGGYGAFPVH
test summary: BRAF HiBiT degradation assay, C-terminal HiBiT-tagged BRAF G466V overexpressed in HCT-116 BRAF−/− cells (clone 8), Nano-Glo HiBiT Lytic assay
Assay type: cell-based
condition set: BRAF G466V (Class 3), HCT-116 BRAF−/− cells; observed Dmax relative to DMSO control

Answered examples (2):
CCCS(=O)(=O)Nc1cccc(-c2nc(C3CCC4(CC3)CCN(C(=O)C3CCN(c5ccc(C(=O)NC6CCC(=O)NC6=O)nc5)CC3)CC4)sc2-c2ccnc(N)n2)c1F (racemic) = < 30%
C[C@@H]1CN(c2ccc(-n3cc(-c4cc(Cl)cc(NS(=O)(=O)N5CCCC5)c4F)c(-c4ccncc4)n3)nc2)CCN1CC1CCN(c2ccc([C@H]3CCC(=O)NC3=O)cc2)CC1 = > 70%

# input // lookup Dmax | system=BRAF G466V (Homo sapiens, UniProt P15056, G466V) | key= CCCS(=O)(=O)Nc1cccc(-c2nc(C3CCC4(CC3)CCN(C(=O)C3CCN(c5cccc6c5n(C)c(=O)n6C5CCC(=O)NC5=O)CC3)CC4)sc2-c2ccnc(N)n2)c1F (racemic)
# output 30 to 70%
